- target desc: T1, 4H3049-AA
- T1 chain: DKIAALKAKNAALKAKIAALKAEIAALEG
- assay details: two-hybrid library CCmax;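 note: natural log of median RNA to DNA barcode read ratio; higher means stronger binding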
- condition details: mean of both orientations
observed property: interaction score
Numbers only.

Reference set (2 entries):
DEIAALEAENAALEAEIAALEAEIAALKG [4H130-AA]	1.67
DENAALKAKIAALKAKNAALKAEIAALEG [4H1913-AA]	-1.85

Would you be so kind as to report interaction score for each listed record?
1. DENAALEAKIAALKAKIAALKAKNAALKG [4H1392-AA]
2. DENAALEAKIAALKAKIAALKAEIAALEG [4H1385-AA]
3. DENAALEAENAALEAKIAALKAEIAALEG [4H1193-AA]

A.
1. -0.0185
2. -0.544
3. 1.47
